Data provenance is patent US12617773B2.

- TARGET_OR_SYSTEM: human CCR6 (Homo sapiens)
- Construct: expressed in transfected cells; host or cells: HEK-293
- Sequence (P51684 whole entry): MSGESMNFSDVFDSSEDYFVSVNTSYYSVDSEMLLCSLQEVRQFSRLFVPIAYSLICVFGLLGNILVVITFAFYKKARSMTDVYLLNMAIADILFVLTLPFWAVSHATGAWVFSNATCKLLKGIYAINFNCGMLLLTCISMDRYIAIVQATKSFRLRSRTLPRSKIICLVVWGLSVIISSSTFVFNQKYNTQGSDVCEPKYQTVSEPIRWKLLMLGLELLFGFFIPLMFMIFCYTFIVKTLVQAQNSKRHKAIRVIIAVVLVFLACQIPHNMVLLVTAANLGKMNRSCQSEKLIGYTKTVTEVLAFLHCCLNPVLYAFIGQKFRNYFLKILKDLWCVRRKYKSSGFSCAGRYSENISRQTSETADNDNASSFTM
- ASSAY_PROTOCOL: FLIPR assay (inhibition of CCL20-induced calcium signal)
- Assay type: cell-based
- SETUP_CONDITIONS: HEK-293 cells expressing human CCR6; mean values where determined several times; read-out: FLIPR IC50
pIC50: −log10 of the molar value.
MEASURED_PROPERTY: pIC50

> print(dat)
                                    compound  endpoint.result
 1  CC(C)c1ccc([C@](O)(c2cncc(C3CCOC3)c2)C2(C)CN(C)C2)cc1 (stereo partly shown)             6.41
 2  CC(C)c1ccc([C@](O)(c2cncc(-c3nc(C45CC(CO)(C4)C5)no3)c2)C2(C)CN(C)C2)cc1             7.15
 3  Cc1noc(C2CCN(c3cncc([C@@](O)(c4ccc(C(C)C)cc4)C4(C)CN(C)C4)c3)C2)n1 (stereo partly shown)             7.44
 4  CC(C)c1ccc([C@](O)(c2ccnc(N3CCCC3)c2)C2(C)CN(C)C2)cc1             7.49
 5  CN1CC(C)([C@@](O)(c2cncc(-c3noc(C(C)(C)O)n3)c2)c2ccc3sccc3c2)C1             6.34
 6  CC(C)c1ccc([C@](O)(c2ccnc(N3CCC(F)(F)C3)c2)C2(C)CN(C)C2)cc1             7.36
 7  CC(C)c1ccc([C@](O)(c2cncc(-c3noc(CN4CCOC4=O)n3)c2)C2(C)CN(C)C2)cc1             6.87
 8  CN1CC(C)([C@](O)(c2ccc(C(C)(C)C)cc2)c2cncc(-c3noc(C(C)(C)O)n3)c2)C1             6.91
 9  CNS(=O)(=O)N1CCC(C)(C#Cc2cncc([C@@](O)(c3ccc(C(C)C)cc3)C3(C)CN(C)C3)c2)CC1             7.72
10  CC(C)c1ccc([C@](O)(c2cncc(C#CC(C)(O)c3ccnc(C(F)(F)F)n3)c2)C2(C)CN(C)C2)cc1 (single isomer, unassigned) [Example 653]             8.00
11  CC(=O)N1CCC(O)(c2nc(-c3cncc([C@@](O)(c4ccc(C(C)C)cc4)C4(C)CN(C)C4)c3)no2)CC1             6.63
12  CC(C)c1ccc([C@](O)(c2cncc(N3CC4(CC(C)(C)C4)OC3=O)c2)C2(C)CN(C)C2)cc1             7.32
13  COCc1nc(-c2cncc([C@@](O)(c3ccc(C(C)C)cc3)C3(C)CN(C)C3)c2)no1             7.36
14  CC(=O)N1CCC(c2nc(-c3cncc([C@@](O)(c4ccc(C(C)C)cc4)C4(F)CN(C)C4)c3)no2)CC1             7.36
15  CCOc1ccc(C(O)(c2cncc(N3CCCC3)c2)C2(C)CN(C)C2)cc1 (stereo not shown)             6.83
16  CCCc1ccc([C@](O)(c2cncc(-c3noc(C4CCN(C(C)=O)CC4)n3)c2)C2(C)CN(C)C2)cc1             7.18
17  CC(C)c1ccc([C@](O)(c2cncc(C3=COCC3)c2)C2(C)CN(C)C2)cc1             7.51
18  CC(C)c1ccc([C@](O)(c2cncc(-c3noc([C@H]4CC[C@H](O)CC4)n3)c2)C2(C)CN(C3CC3)C2)cc1             7.47
19  CC(C)c1ccc([C@](O)(c2cncc(-c3noc(C4(C)CC(=O)N(C)C4)n3)c2)C2(C)CN(C)C2)cc1 (single isomer, unassigned) [Example 366]             6.78
20  CC(C)COc1cc([C@@](O)(c2ccc(C(C)C)cc2)C2(C)CN(C)C2)ccn1             7.72
21  CC(C)c1ccc([C@](O)(c2cncc(OC3CCC(O)CC3)c2)C2(C)CN(C)C2)cc1 (stereo partly shown)             6.69
22  CC(C)c1ccc([C@](O)(c2cncc(-c3noc(C4CCOC4)n3)c2)C2(C)CN(C)C2)cc1 (stereo partly shown)             7.33
23  CN1CC(C)([C@](O)(c2ccc(C(C)(C)F)cc2)c2cncc(-c3noc(C(C)(C)O)n3)c2)C1             6.10
24  COCC(=O)N1CCC(c2nc(-c3cncc([C@@](O)(c4ccc(C(C)C)cc4)C4(C)CN(C)C4)c3)no2)(C(C)C)CC1             7.47
25  CC(C)c1ccc([C@](O)(c2cncc(-c3noc(C4(O)CCCCC4)n3)c2)C2(C)CN(C)C2)cc1             7.68
26  CC(C)c1ccc([C@](O)(c2cnnc(O[C@@H]3CCOC3)c2)C2(C)CN(C)C2)cc1             6.71
27  CC(C)c1ccc([C@](O)(c2cncc(CCC(C)(O)c3ccn(C4CC4)n3)c2)C2(C)CN(C)C2)cc1 (stereo partly shown)             6.83
28  CC(C)c1ccc([C@](O)(c2cncc(C#CC(C)(O)c3ccn(C)n3)c2)C2(C)CN(C)C2)cc1 (single isomer, unassigned) [Example 404]             6.79
